This collection of values is drawn from patent US4654368A.

Test system: Cladosporium herbarum TAMF 517
protocol-summary: Test on fungicidal effect on fungi (agar medium diluting method)
Type: cell-based
test-parameters: PDA, 27° C., cultivation period 4 days
endpoint: Minimum inhibitory concentration

Here's what some known entries look like.
compound: CC[CH2][Sn]([CH2]CC)([CH2]CC)[S]CCC[Si]12OCCN(CC(CC)O1)CC(CC)O2 (stereo not shown) [compound 23]
target-of-assay: Cladosporium herbarum TAMF 517
endpoint: Minimum inhibitory concentration
value-reported: < 2.5 ppm
--
compound: CCC1CN2CC(C)O[Si](CCC[S][Sn]([c]3ccccc3)([c]3ccccc3)[c]3ccccc3)(OC(C)C2)O1 (stereo not shown) [compound 32]
target-of-assay: Cladosporium herbarum TAMF 517
endpoint: Minimum inhibitory concentration
value-reported: < 12.5 ppm
--
compound: CC(C)[CH2][Sn]([CH2]C(C)C)([CH2]C(C)C)[S]CCC[Si]12OCCN(CCO1)CCO2 [compound 26]
target-of-assay: Cladosporium herbarum TAMF 517
endpoint: Minimum inhibitory concentration
value-reported: < 12.5 ppm

# evaluate next
For CCC[CH2][Sn]([CH2]CCC)([CH2]CCC)[S]CCC[Si]12OCCN(CCO1)CC(C)O2 (stereo not shown) [compound 24] , what is its reported Minimum inhibitory concentration?
< 12.5 ppm
